Parameter: TGI. Scope: all listed entries.
- Tested on: OVCAR-4 ovarian
- ASSAY OVERVIEW: NCI tumour cell line growth inhibition, 48 h

MOLECULE | TGI
OCC(O)C(Cl)CCl (stereo not drawn) | > 100 µM
N.N.N.N.N.[Cl-].[Co+3].c1ccc(-c2nn[n-]n2)cc1 | > 100 µM
CC1CC[C@@]2(OC1)OC1C[C@H]3[C@@H]4CC=C5CC(OC6OC(CO)C(OC7OC(CO)C(O)C(OC8OCC(O)C(O)C8O)C7OC7OC(CO)C(O)C(O)C7O)C(O)C6O)CCC5(C)[C@H]4CCC3(C)C1[C@@H]2C (stereo partly drawn) | 17.4 µM
CC1OC(n2c3ccccc3c3c4c(c5c6ccccc6[nH]c5c32)C(=O)N(CCN[C@@H]2CCC[C@H]2N)C4=O)CC(O)C1O (stereo partly drawn) | 7.06 µM
CC(=O)O[C@H]1C(=O)[C@@]2(C)[C@H]([C@H](OC(=O)c3ccccc3)[C@]3(O)C[C@H](OC(=O)[C@H](O)[C@@H](NC(=O)c4cccc(N=[N+]=[N-])c4)c4ccccc4)C(C)=C1C3(C)C)[C@]1(OC(C)=O)CO[C@@H]1C[C@@H]2O | > 25 µM
COc1cc(NC(C)CCCN)c2ncccc2c1 (stereo not drawn) | > 100 µM
O=C(Nc1cccc(-n2cc(-c3ccncc3)c(-c3ccc(Cl)c(O)c3)n2)c1)c1ccc(N2CCOCC2)c(C(F)(F)F)c1 | > 50 µM
O=c1ccn([C@@H]2C[C@@H]2CO)c(=O)[nH]1 | > 100 µM
O=C1C(N2CC2)=C(N2CC2)C(=O)C(N2CC2)=C1N1CC1 | 7.65 µM
CC(C)=CCC/C(=C/CC/C(=C\CCc1ccoc1)C(=O)O)C(=O)O | > 100 µM
COc1ccc2c(=O)cc(-c3ccncc3)oc2c1OC | > 100 µM
O=C(CCCN1CCC2(CC1)CC(=O)N(N1CCCCCC1)C2=O)c1ccccc1 | > 100 µM
CCN(Cc1ccc(F)cc1)c1ccc(CO)c(F)c1 | 27.6 µM
C1=CC=C2NCCCCCCCNC3=CC=CC=CC3=NCCCCCCCN=C2C=C1 | > 100 µM
Fc1ccc(C(OCCN2CCC3CCC(C2)N3C/C=C/c2ccco2)c2ccc(F)cc2)cc1 (stereo not drawn) | 25.2 µM
CCN(CC)/C(Sc1ccccc1)=C(\C(Cl)=C(Cl)Cl)[N+](=O)[O-] | > 100 µM
CCN(CC)CCOc1ccc(CCc2cc(OC)c(OC)c(OC)c2)cc1 | > 100 µM
O=C(c1cccs1)N(C(=S)OC12CC3CC(CC(C3)C1)C2)c1ccccc1 | > 100 µM
CN1CNc2nc(N)n(C)c(=O)c2C1 | > 10 µM
C(=N\NC1=NCCN1)/c1ccc(-c2cn3cc(/C=N/NC4=NCCN4)ccc3n2)cc1 | > 100 µM
CCC1CN2C(=N1)c1ccccc1-c1cc(Cl)ccc12 (stereo not drawn) | 28.6 µM
O=C1C2C3C=C4c5ccccc5N(c5ccccc5)C4(C2C(=O)N1c1ccc(Cl)cc1)[C@H]1C(=O)N(c2ccc(Cl)cc2)C(=O)[C@@H]31 (stereo partly drawn) | > 100 µM
CCOC(=O)/C=C/n1c2ccccc2c(=O)c2ccccc21 | > 100 µM

====

// values below are reported TGI
- System: SN12C renal
- ASSAY OVERVIEW: NCI tumour cell line growth inhibition, 48 h

COMPOUND | TGI
CC(=O)OCC1OC(c2nc3ccccc3s2)=CC(OC(C)=O)C1OC(C)=O (stereo not given) | > 100 µM
CN(C)CCCNc1ccc([N+](=O)[O-])c2nc3ccccc3c(N)c12 | 7.37 µM
c1ccc(CN2CCC3(CC2)SSC2(CCN(Cc4ccccc4)CC2)S3)cc1 | > 100 µM
Cc1cc2c(C)nn(Cc3ccccc3)c2c(C(N)=O)c1C | > 100 µM
COc1cc2c(cc1O)CC[C@@H]1[C@@H]2CC[C@]2(C)[C@@H](OCCN(C)C)CC[C@@H]12 | 4.05 µM
CCOC(=O)/C=C/n1c2ccccc2c(=O)c2ccccc21 | > 100 µM
O=c1ccn(C2CC(O)C(CO)O2)c(=O)[nH]1 (stereo not given) | > 5000 µM
COc1c(O)cc2oc(-c3ccc(O)cc3)cc(=O)c2c1O | > 100 µM
O=S(=O)(O)C(=Nc1cccc(Cc2ccccc2)c1)Nc1cccc(Cc2ccccc2)c1 | 37.2 µM
C#CC1(O)C(COP(=O)(O)OC(COCCCCCCCCCCCCCCCCCC)COP(=O)(O)OCC2OC(n3cc(F)c(=O)[nH]c3=O)CC2O)OC(n2ccc(N)nc2=O)C1O (stereo not given) | > 65.1 µM
